# tested.target: human CB1 receptors (Homo sapiens (Human))
# assay.overview: functional cAMP assay, CHO cells expressing human CB1
# Type: cell-based
pEC50: −log10 of the molar value.
measurement.label: pEC50

compound: Cc1nc(C(C)(CS(C)(=O)=O)NC(=O)c2cc(OCC(F)(F)F)c(C3(F)COC3)cn2)no1 (single isomer, unassigned) [Example 132]
measurement.label: pEC50
result.value: < 5.00

----------
Catalogue of EC50 readings, one per entry.
# tested.target: human CB1 receptors (Homo sapiens (Human), UniProt P21554)
# Sequence (P21554 whole entry): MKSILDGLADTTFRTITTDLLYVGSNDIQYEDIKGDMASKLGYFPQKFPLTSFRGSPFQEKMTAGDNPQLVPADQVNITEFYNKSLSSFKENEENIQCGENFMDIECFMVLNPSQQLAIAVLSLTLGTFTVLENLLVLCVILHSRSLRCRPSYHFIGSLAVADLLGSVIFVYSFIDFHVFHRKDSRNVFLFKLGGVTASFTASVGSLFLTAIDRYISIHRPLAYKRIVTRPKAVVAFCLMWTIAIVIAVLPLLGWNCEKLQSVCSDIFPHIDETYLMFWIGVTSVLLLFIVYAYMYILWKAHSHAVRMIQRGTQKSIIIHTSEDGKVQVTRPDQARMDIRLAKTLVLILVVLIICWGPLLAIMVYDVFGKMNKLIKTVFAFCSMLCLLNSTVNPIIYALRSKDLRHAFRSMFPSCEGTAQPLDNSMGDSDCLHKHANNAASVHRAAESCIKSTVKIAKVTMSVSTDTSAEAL
# assay.overview: functional cAMP assay, CHO cells expressing human CB1
# Assay type: cell-based
# settings: functional cAMP assay, CHO cells expressing human CB1; read-out: Human CB1 EC50
# Experimental: CHO cells expressing human CB1 or CB2 receptors are seeded 17-24 hours prior to the experiment 50.000 cells per well in a black 96 well plate with flat clear bottom (Corning Costar #3904) in DMEM (Invitrogen No. 31331), 1×HT supplement, with 10% fetal calf serum and incubated at 5% CO2 and 37° C. in a humidified incubator. […] The time-resolved energy transfer is measured by a TRF reader (Evotec Technologies GmbH), equipped with a ND:YAG laser as excitation source. […]

compound: CNC(=O)CC1(NC(=O)c2cc(OCC(F)(F)F)c(C3CC3)cn2)CS(=O)(=O)C1
EC50: > 10 µM
--
compound: CC(C)C[C@H](NC(=O)c1cc(OCC(F)(F)F)c(C2CC2)cn1)C(N)=O
EC50: > 10 µM
--
compound: Cc1nnc(C(NC(=O)c2cc(OCC(F)(F)F)c(C3CC3)cn2)C(C)(C)C)o1 (centres unmarked)
EC50: > 10 µM
--
compound: Cc1nc(C(C)(NC(=O)c2cc(OCC(F)(F)F)c(C3CC3)cn2)C(=O)N2CCC2)no1 (centres unmarked)
EC50: > 10 µM
--
compound: CCN(C(=O)c1cc(OCC2CC2)c(C2CC2)cn1)C(C)(C)C
EC50: > 10 µM
--
compound: Cc1nc(C(C)(NC(=O)c2cc(OCC(F)(F)F)c(N3CC(F)(F)C3)cn2)C2CC2)no1 (centres unmarked)
EC50: > 10 µM
--
compound: CC[C@](C)(CO)NC(=O)c1cc(OCC2CC2)c(Cl)cn1
EC50: > 10 µM
--
compound: Cc1nc(C(C)(NC(=O)c2cc(O[C@@H](C)C(F)(F)F)c(C3CC3)cn2)C2CC2)no1 (single isomer, unassigned; epimer b) [Example 69]
EC50: 0.015 µM

----------
Catalogue of EC50 readings, one per entry.
# tested.target: human CB1 receptors (Homo sapiens (Human))
# assay.overview: functional cAMP assay, CHO cells expressing human CB1
# Format: cell-based
# settings: functional cAMP assay, CHO cells expressing human CB1; read-out: Human CB1 EC50
measurement.label: EC50

molecule: CC(CC1CC1)(NC(=O)c1cc(OCC(F)(F)F)c(C2CC2)cn1)c1noc(N)n1 (stereo not shown)
result.value: > 10 µM
//
molecule: CC(C)(C)C(NC(=O)c1cc(OCC(F)(F)F)c(C2CC2)cn1)C(=O)N1CC(F)(F)C1 (stereo not shown)
result.value: > 10 µM
//
molecule: Cc1nc(C(C)(NC(=O)c2cc(O[C@H](C)C(F)(F)F)c(C3CC3)cn2)C2CC2)no1 (single isomer, unassigned; epimer b) [Example 73]
result.value: 0.017 µM
//
molecule: Cc1nnc(C(C)(CC2COC2)NC(=O)c2cc(OCC(F)(F)F)c(C3CC3)cn2)o1 (stereo not shown)
result.value: > 10 µM

----------
Catalogue of EC50 readings, one per entry.
# tested.target: human CB2 receptors (Homo sapiens (Human))
# assay.overview: functional cAMP assay, CHO cells expressing human CB2
# Assay type: cell-based
# settings: Human CB2 EC50 (uM)
measurement.label: EC50

compound: Cc1nc(C(C)(CS(C)(=O)=O)NC(=O)c2cc(OCC(F)F)c(C3CC3)cn2)no1 (single isomer, unassigned) [Example 283]
measurement.label: EC50
result.value: 0.0533 µM
--
compound: C[C@H](Oc1cc(C(=O)NC(C)(CC(N)=O)C2CC2)ncc1C1(F)COC1)C(F)(F)F (single isomer, unassigned) [Example 277]
measurement.label: EC50
result.value: 0.0431 µM
--
compound: Cc1nc(C(C)(CC2CC2)NC(=O)c2cc(OCC(F)(F)F)c(C3CCC3)cn2)no1 (single isomer, unassigned) [Example 116]
measurement.label: EC50
result.value: 0.0041 µM
--
compound: CC(C)(C)C(NC(=O)c1cc(OCC(F)(F)F)c(C2CC2)cn1)c1noc(N)n1 (single isomer, unassigned) [Example 227]
measurement.label: EC50
result.value: 0.015 µM
--
compound: Cc1nc(C(C)(CC2CC2)NC(=O)c2cc(OCC(F)(F)F)c(C3(F)COC3)cn2)no1 (single isomer, unassigned) [Example 135]
measurement.label: EC50
result.value: 0.144 µM
--
compound: Cc1nc(C(C)(CO)NC(=O)c2cc(OCC(F)(F)F)c(C3CC3)cn2)no1 (single isomer, unassigned) [Example 140]
measurement.label: EC50
result.value: 0.511 µM
--
compound: CC(CF)Oc1cc(C(=O)NC(C)(CC(N)=O)C2CC2)ncc1C1CC1 (single isomer, unassigned) [Example 301]
measurement.label: EC50
result.value: 0.0304 µM
--
compound: CNC(=O)C(NC(=O)c1cc(OCC(F)(F)F)c(C2CC2)cn1)C(C)(C)C (single isomer, unassigned) [Example 225]
measurement.label: EC50
result.value: 0.0004 µM
--
compound: Cc1nc(C(C)(CC2CC2)NC(=O)c2cc(OCCF)c(C3CC3)cn2)no1 (single isomer, unassigned) [Example 156]
measurement.label: EC50
result.value: 0.0047 µM
--
compound: CC(C)C[C@H](CC(N)=O)NC(=O)c1cc(OCC(F)(F)F)c(C2CC2)cn1 (single isomer, unassigned; enantiomer a)
measurement.label: EC50
result.value: 0.027 µM
--
compound: CNC(=O)C(NC(=O)c1cc(OCC(F)(F)F)c(C2CC2)cn1)C(C)(C)C (single isomer, unassigned) [Example 224]
measurement.label: EC50
result.value: 0.0573 µM
--
compound: Cc1nc(C(C)(CO)NC(=O)c2cc(OCC(F)(F)F)c(C3CC3)cn2)no1 (single isomer, unassigned) [Example 141]
measurement.label: EC50
result.value: 0.0968 µM
--
compound: Cc1nc(C(NC(=O)c2cc(OCC(F)(F)F)c(C3CC3)cn2)C(C)(C)C)no1 (single isomer, unassigned) [Example 212]
measurement.label: EC50
result.value: 0.005 µM

----------
# tested.target: human CB2 receptors (Homo sapiens (Human), UniProt P34972)
# Sequence (P34972 whole entry): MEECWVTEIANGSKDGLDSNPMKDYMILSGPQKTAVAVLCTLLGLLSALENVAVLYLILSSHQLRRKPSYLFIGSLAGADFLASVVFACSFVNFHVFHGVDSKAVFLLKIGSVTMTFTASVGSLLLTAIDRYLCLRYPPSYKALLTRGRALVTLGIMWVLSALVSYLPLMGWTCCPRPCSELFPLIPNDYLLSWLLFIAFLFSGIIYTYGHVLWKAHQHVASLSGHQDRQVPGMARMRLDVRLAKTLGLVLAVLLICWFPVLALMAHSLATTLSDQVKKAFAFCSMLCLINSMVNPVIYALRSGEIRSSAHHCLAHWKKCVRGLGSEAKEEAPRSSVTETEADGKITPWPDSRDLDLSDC
# assay.overview: functional cAMP assay, CHO cells expressing human CB2
# Format: cell-based
# settings: read-out: Human CB2 EC50
# Description: CHO cells expressing human CB1 or CB2 receptors are seeded 17-24 hours prior to the experiment 50.000 cells per well in a black 96 well plate with flat clear bottom (Corning Costar #3904) in DMEM (Invitrogen No. 31331), 1×HT supplement, with 10% fetal calf serum and incubated at 5% CO2 and 37° C. in a humidified incubator. […] The time-resolved energy transfer is measured by a TRF reader (Evotec Technologies GmbH), equipped with a ND:YAG laser as excitation source. […]
pEC50: −log10 of the molar value.
Assign true (1) to entries whose pEC50 meets or exceeds 7; assign false (0) to the rest.

molecule: CC(C)(C)C(NC(=O)c1cc(OCC(F)(F)F)c(C2CC2)cn1)C(N)=O (centres unmarked) [Example 194]
assigned.class: true (1)
--
molecule: Cc1nnc(C(C)(CC2CC2)NC(=O)c2cc(OCC(F)(F)F)c(C3CC3)cn2)o1 (centres unmarked) [Example 173]
assigned.class: true (1)
--
molecule: C[C@H](Oc1cc(C(=O)NC(C(=O)N2CCC2)C(C)(C)C)ncc1C1CC1)C(F)(F)F (some centres unmarked) [Example 202]
assigned.class: true (1)
--
molecule: NC(=O)CC1(NC(=O)c2cc(OCC(F)(F)F)c(N3CC(F)(F)C3)cn2)COC1 [Example 223]
assigned.class: false (0)
--
molecule: Cc1nc(C(C)(NC(=O)c2cc(OCC(F)(F)F)c(C3CC3)cn2)C(=O)N2CC3(COC3)C2)no1 (centres unmarked) [Example 148]
assigned.class: false (0)
--
molecule: COC(=O)C(C)(C)NC(=O)c1cc(I)c(Cl)cn1 [Example 1]
assigned.class: true (1)
--
molecule: Cc1nc(C(C)(CS(C)(=O)=O)NC(=O)c2cc(OCC(F)(F)F)c(Cl)cn2)no1 (centres unmarked) [Example 80]
assigned.class: false (0)

----------
# tested.target: human CB2 receptors (Homo sapiens (Human), UniProt P34972)
# assay.overview: functional cAMP assay, CHO cells expressing human CB2
# Type: cell-based
# settings: read-out: Human CB2 EC50
Catalogue of EC50 readings, one per entry.
measurement.label: EC50 (nM)

compound: Cc1nc(C(NC(=O)c2cc(OCC(F)(F)F)c(C3CC3)cn2)C(C)(C)C)no1 (stereo not shown)
measurement.label: EC50
unit.descriptor: nM
result.value: 8.8
//
compound: CCC(CC)(NC(=O)c1cc(OCC2CC2)c(C2CC2)cn1)C(=O)NC
measurement.label: EC50
unit.descriptor: nM
result.value: 17
//
compound: C[C@H](Oc1cc(C(=O)NC(c2noc(N)n2)C(C)(C)C)ncc1C1CC1)C(F)(F)F (stereo partly shown) [Example 218]
measurement.label: EC50
unit.descriptor: nM
result.value: 6.8
//
compound: CC(C)C[C@H](NC(=O)c1cc(OCC2CC2)c(Br)cn1)C(N)=O
measurement.label: EC50
unit.descriptor: nM
result.value: 32.9
//
compound: Cc1nnc(C(NC(=O)c2cc(OCC(F)(F)F)c(C3CC3)cn2)C(C)(C)C)o1 (stereo not shown)
measurement.label: EC50
unit.descriptor: nM
result.value: 21.8
//
compound: O=C(NC(c1ccccn1)C(F)(F)F)c1cc(OCC(F)(F)F)c(C2CC2)cn1 (stereo not shown)
measurement.label: EC50
unit.descriptor: nM
result.value: 12.2
//
compound: CC(C)C[C@@](C)(CO)NC(=O)c1cc(OCC2CC2)c(Cl)cn1
measurement.label: EC50
unit.descriptor: nM
result.value: 22.4
//
compound: CC(C)(C)C(NC(=O)c1cc(OCC(F)(F)F)c(C2CC2)cn1)C(=O)N1CCC12COC2 (stereo not shown)
measurement.label: EC50
unit.descriptor: nM
result.value: 36.4
//
compound: Cc1csc(C(C)(CC2CC2)NC(=O)c2cc(OCC(F)(F)F)c(C3CC3)cn2)n1 (stereo not shown)
measurement.label: EC50
unit.descriptor: nM
result.value: 95.8
//
compound: Cc1nc(C(C)(CC2CC2)NC(=O)c2cc(OC(C)CF)c(C3CC3)cn2)no1 (single isomer, unassigned) [Example 290]
measurement.label: EC50
unit.descriptor: nM
result.value: 0.6
//
compound: Cc1nc(C(C)(CC2CC2)NC(=O)c2cc(O[C@@H](C)C(F)(F)F)c(C3CCC3)cn2)no1 (stereo partly shown) [Example 120]
measurement.label: EC50
unit.descriptor: nM
result.value: 0.8
//
compound: CC(C)(C)C(NC(=O)c1cc(OCC(F)(F)F)c(C2CC2)cn1)C(=O)N1CC(F)(F)C1 (stereo not shown)
measurement.label: EC50
unit.descriptor: nM
result.value: 7.6
//
compound: Cc1nc(C(C)(NC(=O)c2cc(OCC(F)(F)F)c(C3CC3)cn2)C(=O)N(C)C)no1 (stereo not shown)
measurement.label: EC50
unit.descriptor: nM
result.value: 2
//
compound: CC(CF)Oc1cc(C(=O)NC(C)(CC(N)=O)C2CC2)ncc1C1CC1 (stereo not shown) [Example 294]
measurement.label: EC50
unit.descriptor: nM
result.value: 0.6
//
compound: Cc1nc(C(C)(CS(C)(=O)=O)NC(=O)c2cc(O[C@@H](C)C(F)(F)F)c(C3CC3)cn2)no1 (stereo partly shown)
measurement.label: EC50
unit.descriptor: nM
result.value: 3.4
//
compound: Cc1nc(C(C)(CS(C)(=O)=O)NC(=O)c2cc(OCC(F)(F)F)c(N3CC(F)(F)C3)cn2)no1 (stereo not shown)
measurement.label: EC50
unit.descriptor: nM
result.value: 55.4
